GI50: recorded values
test system: HT-29; assay: NCI tumour cell line growth inhibition, 48 h
Activity calls are given as the source filed them. No stated cut-off is given here; in the data, active = GI50 up to about 1.1 µM and inactive = higher.
observation type: GI50

- compound: "CCOC(=O)c1c(N2CCOCC2)[nH]c(=O)c(C(c2c(O)c(C(=O)OCC)c(N3CCOCC3)[nH]c2=O)C(C)C)c1O"
  reported: "> 100 µM (inactive)"
- compound: "Cn1cnc([N+](=O)[O-])c1SC1=NCCS1"
  reported: "> 100 µM (inactive)"
- compound: "COc1cc(C)cc2c1C(=O)C(NC(C)=O)=CC2=O"
  reported: "> 100 µM (inactive)"
- compound: "Cc1cc(S(=O)(=O)Nc2nnc3c4ccccc4cnn23)c(S)cc1Cl"
  reported: "> 100 µM (inactive)"
- compound: "CC1=C(C#N)C(N)=C2C(C)=C(C#N)C(N)=C12"
  reported: "> 100 µM (inactive)"
- compound: "CCOC(=O)CC1Nc2ccccc2C12CCc1c([nH]c3ccccc13)C2C(=O)OCC (stereo not given)"
  reported: "11.6 µM (inactive)"
- compound: "Nc1[nH]c(=S)[nH]c(=O)c1/N=N/c1c(Br)cc(S(N)(=O)=O)cc1Br"
  reported: "> 100 µM (inactive)"
- compound: "Cc1cccc2c1NC(c1c(C)[nH]c3ccccc13)C2 (stereo not given)"
  reported: "> 100 µM (inactive)"
- compound: "O=Cc1cc(C(=O)OCc2ccccc2)n(S(=O)(=O)c2ccccc2)c1"
  reported: "21.7 µM (inactive)"
- compound: "COc1ccc(C2=C(N)c3c(OC)cccc3C2=O)cc1"
  reported: "> 100 µM (inactive)"

// provenance: ChEMBL document CHEMBL1201862
